Tested system: TNK2 (human)
Measurement description: KINOMEscan competition binding
Condition notes: compound 10.0 µM
kinase still bound, per cent of control values for the compounds below.

# Compound, kinase still bound, per cent of control, %
rows = [
    ("CC[C@@H]1C(=O)N(C)c2cnc(Nc3ccc(C(=O)NC4CCN(C)CC4)cc3OC)nc2N1C1CCCC1", 100),
    ("CCC(=O)N1CCN(c2ccc(-n3c(=O)ccc4cnc5ccc(-c6cnc7ccccc7c6)cc5c43)cc2C(F)(F)F)CC1", 51),
    ("COc1cc(C(=O)NC2CCN(C)CC2)ccc1Nc1ncc2c(n1)N(C1CCCC1)C(C)CC(=O)N2C (centres undefined)", 100),
    ("N#Cc1c(NC(=O)c2cccc3ccccc23)sc2c1CCCC2", 77),
    ("O=C(NC1CC1)c1cccc(-c2ccc3c(NC(=O)C4CC4)n[nH]c3c2)c1", 100),
    ("C[C@@H](Oc1cc(-n2cnc3ccc(CN4CCN(C)CC4)cc32)sc1C(N)=O)c1ccccc1C(F)(F)F", 100),
    ("CCN1CCN(Cc2ccc(Nc3ncc4c(n3)N(C)c3ccccc3C(=O)N4C)cc2C(F)(F)F)CC1", 24),
    ("O=C(O)c1ccc(Nc2ncc3c(n2)-c2ccc(Cl)cc2C(c2c(F)cccc2F)=NC3)cc1", 46),
    ("Cc1ccc(NC(=O)c2cccc(C(C)(C)C#N)c2)cc1Nc1ccc2ncn(C)c(=O)c2c1", 100),
]
